target_under_test: DCN1 (Homo sapiens (Human), UniProt Q96GG9)
Sequence (Q96GG9 whole entry): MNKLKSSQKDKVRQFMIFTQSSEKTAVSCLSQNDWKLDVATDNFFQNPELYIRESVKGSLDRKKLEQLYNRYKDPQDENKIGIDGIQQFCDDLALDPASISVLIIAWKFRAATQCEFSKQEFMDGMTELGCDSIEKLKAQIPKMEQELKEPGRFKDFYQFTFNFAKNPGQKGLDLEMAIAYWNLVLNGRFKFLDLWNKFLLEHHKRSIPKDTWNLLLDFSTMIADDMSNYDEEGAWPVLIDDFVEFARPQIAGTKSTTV
assay_overview: TR-FRET binding assay (biotin-DCN1 / Ac-UBE2M12-AlexaFluor488)
particulars: mean ± SD (n); read-out: DCN1_TRFRET Mean EC50
property_label: EC50 (µM)
Dear colleague, please return just the value in µM, with no unit written.

DCN1 (Homo sapiens (Human), UniProt Q96GG9) / EC50 / Cc1cccc(C(=O)N[C@@H]2C(=O)N(C)c3c(c(C)nn3-c3ccccc3)[C@@H]2c2ccc(F)cc2)c1 [RG-0005655] : value?
0.446

Fill in the recorded EC50 for this compound, with DCN1 (Homo sapiens (Human), UniProt Q96GG9) as test system: COC(=O)CN1C(=O)[C@@H](NC(=O)c2cccc(C(F)(F)F)c2)[C@@H](c2ccc(F)cc2)c2c(C)nn(-c3ccccc3)c21 [RG-0013841]
5.54

Hey, just so you know, these numbers are from patent US12409171B2.
